- targetDesc: T1, human transferrin receptor 1 (hTfR) (human, UniProt P02786 89-760, limits assumed)
- T1 construct: also called TFRC; transferrin receptor protein 1
- T1 sequence (P02786 89-760 limits assumed): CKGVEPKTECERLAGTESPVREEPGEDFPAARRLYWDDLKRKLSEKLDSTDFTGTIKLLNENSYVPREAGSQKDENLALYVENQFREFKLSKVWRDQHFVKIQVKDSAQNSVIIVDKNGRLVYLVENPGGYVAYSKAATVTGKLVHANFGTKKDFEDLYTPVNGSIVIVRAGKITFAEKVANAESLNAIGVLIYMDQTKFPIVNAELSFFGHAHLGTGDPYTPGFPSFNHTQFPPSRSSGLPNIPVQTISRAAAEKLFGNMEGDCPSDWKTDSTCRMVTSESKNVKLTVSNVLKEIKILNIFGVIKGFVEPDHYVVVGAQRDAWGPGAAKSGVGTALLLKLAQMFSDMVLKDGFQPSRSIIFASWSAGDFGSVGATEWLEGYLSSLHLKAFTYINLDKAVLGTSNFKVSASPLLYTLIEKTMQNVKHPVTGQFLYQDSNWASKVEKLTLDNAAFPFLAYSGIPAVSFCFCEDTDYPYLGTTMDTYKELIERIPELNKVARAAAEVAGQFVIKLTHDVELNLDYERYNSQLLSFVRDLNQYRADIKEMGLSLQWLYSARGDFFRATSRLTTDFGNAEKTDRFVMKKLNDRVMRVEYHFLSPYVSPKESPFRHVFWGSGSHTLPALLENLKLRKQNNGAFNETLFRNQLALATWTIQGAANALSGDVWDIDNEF
- protocolSummary: in vitro binding screen, method not described

>  <binder>
69305 (antibody, V domains shown, Anti-hTfR antibody of the initial screen; only variable domains are tied to it) VH: QVQLVESGGGVVQPGRSLRLSCAASGFTFSSYGMHWVRQAPGKGLEWVAVIWYDGSNKYYADSVKGRFTISRDISKNTLYLQMNSLRAEDTAVYYCAGQLDLFFDYWGQGTLVTVSS VL: DIQMTQSPSSLSASVGDRVTITCRASQSIDRYLNWYRQKPGKAPKLLIYTTSSLQSGVPSRFSGSGSGTDFTLTLSSLQPEDFATYYCQQSYSPPLTFGGGTKVEIK

>  <binding result>
binds

$$$$
>  <binder>
12802B (antibody, V domains shown, Anti-hTfR antibody of the initial screen; only variable domains are tied to it) VH: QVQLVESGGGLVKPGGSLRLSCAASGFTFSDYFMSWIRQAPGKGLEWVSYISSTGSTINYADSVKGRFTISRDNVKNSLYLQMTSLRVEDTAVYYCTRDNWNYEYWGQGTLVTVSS VL: EIVMTQSPATLSVSPGERATLSCRASQSVSINLAWYQQKPGQAPRLLIFVASTRATGIPARFSGSGSGTEFTLTISSLQSEDFATYYCQQYDIWPYTFGQGTKLEIK

>  <binding result>
binds

$$$$
>  <binder>
31863B (antibody, V domains shown, Anti-hTfR antibody of the initial screen; only variable domains are tied to it) VH: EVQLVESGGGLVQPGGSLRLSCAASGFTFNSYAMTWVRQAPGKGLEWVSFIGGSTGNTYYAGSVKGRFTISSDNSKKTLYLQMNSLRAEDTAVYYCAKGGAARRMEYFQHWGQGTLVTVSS VL: DIQMTQSPSSLSASIGDRVTITCRASQGISNYLAWYQQKPGKVPKLLIYAASTLQSGVPSRFSGSGSGTDFTLTISSLQPEDVATYYCQNHNSVPLTFGGGTKVEIK

>  <binding result>
binds

$$$$
